Would you mind telling me the reported IC50 of each entry?
- System: HIV
- assay_overview: HIV infection in cell culture (PBL), suppression of virus-induced syncytia formation
- Assay type: cell-based
- measurement_context: read-out: PBL IC50; HIV-infected normal human blood lymphocytes (PBL's); 50% suppression of virus-induced syncytia; read between day 3 and 6 after infection
Please state the value followed by its unit.

Below are worked cases with known answers.
NC(=O)C[C@H](NC(=O)c1ccc2ccccc2n1)C(=O)N[C@@H](Cc1ccccc1)[C@H](O)CN1[C@H](C(F)(F)F)C[C@@H]2CCC[C@@H]21: 22.5 nM
NC(=O)C[C@H](NC(=O)c1cnc2ccccc2n1)C(=O)N[C@@H](Cc1ccccc1)[C@H](O)CN1[C@H](C(F)(F)F)C[C@@H]2CCC[C@@H]21 [Beispiel 1]: 81.7 nM

Moving on to another compound below.
-- ask # get_value(readout= IC50, system= HIV) for NC(=O)C[C@H](NC(=O)c1cnc2ccccc2n1)C(=O)N[C@@H](Cc1ccccc1)[C@H](O)CN1[C@H](C(F)(F)F)C[C@@H]2CCC[C@@H]21 [Beispiel 2]
-- reply 38.5 nM
